- System: Enterococcus faecium
- Procedure Details: Antibacterial activity against glycopeptide resistant Enterococcus faecium 569 strain
- Type: functional
Endpoint: MIC (µg/mL)
// units = µg/mL; emit number, no label

Q) Reported MIC, compound N[C@H]1C(=O)N[C@@H]2Cc3ccc(c(Cl)c3)Oc3cc4cc(c3O)Oc3ccc(cc3Cl)[C@@H](O)[C@@H]3NC(=O)[C@H](NC(=O)[C@@H]4NC(=O)[C@@H](NC2=O)c2cc(O)cc(c2)Oc2cc1ccc2O)c1ccc(O)c(c1)-c1c(O)cc(O)cc1[C@@H](C(=O)NCc1ccc(-c2ccc(Cl)cc2)cc1)NC3=O : ____
A) 4

Q) Give the measured MIC of CCCCCCCCCCNC(=O)[C@H]1NC(=O)[C@H]2NC(=O)[C@H](NC(=O)[C@@H]3NC(=O)[C@H]4NC(=O)[C@@H](Cc5ccc(c(Cl)c5)Oc5cc3cc(c5O)Oc3ccc(cc3Cl)[C@H]2O)NC(=O)[C@H](N)c2ccc(O)c(c2)Oc2cc(O)cc4c2)c2ccc(O)c(c2)-c2c(O)cc(O)cc21 .
A) 4

Q) What value of MIC has been recorded for this entry: CCCCCCCCCCNC(=O)[C@H]1NC(=O)[C@H]2NC(=O)[C@H](NC(=O)[C@@H]3NC(=O)[C@H](CC(N)=O)NC(=O)[C@H](N)[C@H](O)c4ccc(c(Cl)c4)Oc4cc3cc(c4O[C@@H]3O[C@H](CO)[C@@H](O)[C@H](O)[C@H]3O[C@H]3C[C@](C)(N)[C@@H](O)[C@H](C)O3)Oc3ccc(cc3)[C@H]2O[C@H]2C[C@](C)(N)[C@@H](O)[C@H](C)O2)c2ccc(O)c(c2)-c2c(O)cc(O)cc21
A) 2

The reported numbers originate from ChEMBL document CHEMBL1136741.
